# test.target: Mandelate racemase (Pseudomonas putida, UniProt P11444)
# Sequence (P11444 whole entry): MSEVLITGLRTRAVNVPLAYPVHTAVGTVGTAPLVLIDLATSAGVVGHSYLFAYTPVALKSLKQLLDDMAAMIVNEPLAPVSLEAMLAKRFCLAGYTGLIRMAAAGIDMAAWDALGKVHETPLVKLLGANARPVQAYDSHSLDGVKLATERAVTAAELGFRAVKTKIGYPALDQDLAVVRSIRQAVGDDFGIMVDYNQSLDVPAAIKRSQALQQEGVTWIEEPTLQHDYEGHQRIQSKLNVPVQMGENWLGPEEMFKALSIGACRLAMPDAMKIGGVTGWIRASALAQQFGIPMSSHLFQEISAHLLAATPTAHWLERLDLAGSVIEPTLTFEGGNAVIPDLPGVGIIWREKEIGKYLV
# procedure.details: Inhibition of mandelate racemase in Pseudomonas putida
endpoint: pKi
pKi (log units): -log10 of the concentration in mol/L.

In the examples that follow, each entry is paired with its recorded pKi.
* O=CN(O)c1ccccc1 | 5.55
* O=C1Cc2ccccc2N1O | 3.29
* O=C(NO)c1ccccc1 [BENZOHYDROXAMATE] | 4.92

Please examine the following record next.
Task: Can you share its pKi? I mean this compound: O=NN(O)c1ccccc1
Result: 5.57
